Target: human VR1 (Homo sapiens)
Sequence (Q8NER1 whole entry): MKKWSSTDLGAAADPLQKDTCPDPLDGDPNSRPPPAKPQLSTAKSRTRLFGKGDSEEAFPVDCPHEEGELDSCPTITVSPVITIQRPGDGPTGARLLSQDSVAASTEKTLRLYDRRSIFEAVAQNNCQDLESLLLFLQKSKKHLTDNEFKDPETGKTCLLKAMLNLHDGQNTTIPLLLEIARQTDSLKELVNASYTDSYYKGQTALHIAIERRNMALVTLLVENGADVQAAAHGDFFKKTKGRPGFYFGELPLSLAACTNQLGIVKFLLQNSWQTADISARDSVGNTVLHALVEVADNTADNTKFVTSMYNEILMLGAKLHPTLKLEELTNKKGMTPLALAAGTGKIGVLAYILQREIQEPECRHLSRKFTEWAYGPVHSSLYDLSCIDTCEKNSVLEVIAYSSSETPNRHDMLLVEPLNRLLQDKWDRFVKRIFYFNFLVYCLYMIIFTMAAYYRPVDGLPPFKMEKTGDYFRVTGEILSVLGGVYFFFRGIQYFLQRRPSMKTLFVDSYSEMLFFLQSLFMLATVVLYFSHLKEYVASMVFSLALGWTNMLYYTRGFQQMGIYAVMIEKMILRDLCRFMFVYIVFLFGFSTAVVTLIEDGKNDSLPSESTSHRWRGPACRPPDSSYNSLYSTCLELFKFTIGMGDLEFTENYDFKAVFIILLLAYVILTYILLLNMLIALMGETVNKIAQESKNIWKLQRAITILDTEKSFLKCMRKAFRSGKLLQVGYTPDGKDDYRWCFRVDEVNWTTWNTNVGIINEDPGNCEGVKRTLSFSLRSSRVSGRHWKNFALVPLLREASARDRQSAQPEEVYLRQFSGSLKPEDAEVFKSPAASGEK
Assay: hVR1 FLIPR screening assay, IC50 determination (capsaicin)
Details: CHO cells stably expressing hVR1; agonist capsaicin

>  <Compound>
O=C1NC(=O)[C@@]2(N1)C(=O)N(C/C=C/c1ccc(Cl)c(Cl)c1)c1ccccc12 (single isomer, unassigned) [Enantiomer 1B]

>  <Unit text>
µM

>  <IC50>
0.043

$$$$
>  <Compound>
O=C1NC(=O)[C@]2(N1)C(=O)N(C/C=C/c1ccc(Cl)c(Cl)c1)c1ccccc12 (single isomer, unassigned) [Enantiomer 1A]

>  <Unit text>
µM

>  <IC50>
10

$$$$
>  <Compound>
O=C1NC(=O)[C@@]2(N1)C(=O)N(C/C=C/c1ccc(Cl)c(C(F)(F)F)c1)c1ccccc12 (single isomer, unassigned) [Enantiomer 2B]

>  <Unit text>
µM

>  <IC50>
0.241

$$$$
>  <Compound>
O=C1NC(=O)[C@]2(N1)C(=O)N(CC#Cc1ccc(Cl)c(Cl)c1)c1ccccc12 (single isomer, unassigned) [Enantiomer 3A]

>  <Unit text>
µM

>  <IC50>
15.5

$$$$
>  <Compound>
O=C1NC(=O)[C@]2(N1)C(=O)N(C/C=C/c1ccc(Cl)c(C(F)(F)F)c1)c1ccccc12 (single isomer, unassigned) [Enantiomer 2A]

>  <Unit text>
µM

>  <IC50>
3.85

$$$$
>  <Compound>
O=C1NC(=O)[C@@]2(N1)C(=O)N(CC#Cc1ccc(Cl)c(Cl)c1)c1ccccc12 (single isomer, unassigned) [Enantiomer 3B]

>  <Unit text>
µM

>  <IC50>
0.881

$$$$

* * *

pIC50: −log10 of the molar value.
In what follows, each item is paired with its pIC50 for UniProt P07943.

>  <Compound>
O=C1NC(=O)[C@@]2(N1)C(=O)N(CC#Cc1ccc(Cl)c(Cl)c1)c1ccccc12 (single isomer, unassigned) [Enantiomer 3B]

>  <pIC50>
6.01

$$$$
>  <Compound>
O=C1NC(=O)[C@@]2(N1)C(=O)N(C/C=C/c1ccc(Cl)c(Cl)c1)c1ccccc12 (single isomer, unassigned) [Enantiomer 1B]

>  <pIC50>
6.12

$$$$
>  <Compound>
O=C1NC(=O)[C@]2(N1)C(=O)N(C/C=C/c1ccc(Cl)c(Cl)c1)c1ccccc12 (single isomer, unassigned) [Enantiomer 1A]

>  <pIC50>
7.60

$$$$
>  <Compound>
O=C1NC(=O)[C@@]2(N1)C(=O)N(C/C=C/c1ccc(Cl)c(C(F)(F)F)c1)c1ccccc12 (single isomer, unassigned) [Enantiomer 2B]

>  <pIC50>
5.48

$$$$
>  <Compound>
O=C1NC(=O)[C@]2(N1)C(=O)N(C/C=C/c1ccc(Cl)c(C(F)(F)F)c1)c1ccccc12 (single isomer, unassigned) [Enantiomer 2A]

>  <pIC50>
7.48

$$$$
>  <Compound>
O=C1NC(=O)[C@]2(N1)C(=O)N(CC#Cc1ccc(Cl)c(Cl)c1)c1ccccc12 (single isomer, unassigned) [Enantiomer 3A]

>  <pIC50>
7.14

$$$$
